Parameter: pIC50. Scope: all listed entries.
test system: 1A9/A8, EpoA-resistant 1A9 cell line (β274 Thr→Ile); experiment: 72 hour growth-inhibition (cytotoxicity) assay, 1A9/A8 cells; type: cell-based, human; conditions: Homo sapiens, 1A9; Table 2, tested epothilone; unit from Table 1A note a; read-out: IC50, 1A9/A8 (Table 2)
pIC50: −log10 of the molar value.
MEASURE: pIC50

>  <MOLECULE>
C/C(=C\c1ccn(C)n1)[C@@H]1C[C@@H]2O[C@]2(C)CCC[C@H](C)[C@H](O)[C@@H](C)C(=O)C(C)(C)[C@@H](O)CC(=O)O1

>  <READOUT_VALUE>
9.10

$$$$
>  <MOLECULE>
CSc1cc(/C=C(\C)[C@@H]2C[C@@H]3O[C@]3(C)CCC[C@H](C)[C@H](O)[C@@H](C)C(=O)C(C)(C)[C@@H](O)CC(=O)O2)nn1C

>  <READOUT_VALUE>
9.22

$$$$
>  <MOLECULE>
C/C(=C\c1nc2ccccc2s1)[C@@H]1C[C@@H]2O[C@]2(C)CCC[C@H](C)[C@H](O)[C@@H](C)C(=O)C(C)(C)[C@@H](O)CC(=O)O1

>  <READOUT_VALUE>
9.15

$$$$
>  <MOLECULE>
CSc1nc(/C=C(\C)[C@@H]2C[C@@H]3C[C@]3(C)CCC[C@H](C)[C@H](O)[C@@H](C)C(=O)C(C)(C)[C@@H](O)CC(=O)O2)cs1 [Compound 4, reference compound]

>  <READOUT_VALUE>
8.62

$$$$
>  <MOLECULE>
CSc1nc(/C=C(\C)[C@@H]2C[C@@H]3O[C@]3(C)CCC[C@H](C)[C@H](O)[C@@H](C)C(=O)C(C)(C)[C@@H](O)CC(=O)O2)cs1 [Compound 3, reference compound]

>  <READOUT_VALUE>
8.89

$$$$
